targetUnderTest: human melanin concentrating hormone receptor (MCHR1) (Homo sapiens, UniProt Q99705, A5T/E4Q)
Sequence (Q99705 whole entry E4Q/A5T): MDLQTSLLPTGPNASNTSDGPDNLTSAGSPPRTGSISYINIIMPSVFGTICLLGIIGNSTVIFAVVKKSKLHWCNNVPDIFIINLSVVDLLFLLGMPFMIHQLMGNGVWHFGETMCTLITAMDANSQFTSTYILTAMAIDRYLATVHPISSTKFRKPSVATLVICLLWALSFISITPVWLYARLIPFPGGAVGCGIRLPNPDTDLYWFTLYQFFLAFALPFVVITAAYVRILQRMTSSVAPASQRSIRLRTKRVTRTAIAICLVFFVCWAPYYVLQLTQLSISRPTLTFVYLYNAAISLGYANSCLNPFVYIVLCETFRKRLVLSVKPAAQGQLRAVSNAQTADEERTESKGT
assayName: Radioligand binding assay for assessment of MCHR1 activity
runParameters: membranes from HEK-293 cells expressing a mutated (E4Q, A5T) hMCHR1 receptor; competition with 0.06 - 0.1 nM [Phe13, [125I]Tyr19]-MCH; 90 min
Quick reference for Ki among some compounds

[
  {
    "compound": "COc1cc(N2CCC(Oc3ccc(-c4ccccc4)cc3)C2=O)ccc1OCC1(O)CCS(=O)(=O)CC1 (stereo not shown) [Example 57]",
    "Ki (nM)": 2
  },
  {
    "compound": "COc1cc(N2CC[C@@H](Oc3ccc(-c4ccccc4)cc3)C2=O)ccc1OC[C@H](O)C1CC1 [Example 44]",
    "Ki (nM)": 4
  },
  {
    "compound": "COc1cc(N2CCC(Oc3ccc(OC4CC4)cc3)C2=O)ccc1OCC(C)(C)O (stereo not shown) [Example 23]",
    "Ki (nM)": 44
  },
  {
    "compound": "COc1cc(N2CCC(Oc3ccc(-c4ccccc4)cc3)C2=O)ccc1OCCS(C)(=O)=O (stereo not shown) [Example 66]",
    "Ki (nM)": 2
  },
  {
    "compound": "COc1cc(N2CCC(Oc3ccc(-c4cccc(F)c4)cc3)C2=O)ccc1OCCS(C)(=O)=O (stereo not shown) [Example 68]",
    "Ki (nM)": 5
  },
  {
    "compound": "COc1cc(N2CCC(Oc3cccc(C(F)(F)F)c3)C2=O)ccc1OCC(C)(C)O (stereo not shown) [Example 7]",
    "Ki (nM)": 6000
  },
  {
    "compound": "Cc1cc(N2CC[C@H](Oc3ccc(-c4ccc(F)cc4)cc3)C2=O)ccc1OCCS(C)(=O)=O [Example 111]",
    "Ki (nM)": 1740
  },
  {
    "compound": "Cc1cc(N2CCC(Oc3ccc(-c4ccccc4)cc3)C2=O)ccc1OCC1(O)CC(F)(F)C1 (stereo not shown) [Example 90]",
    "Ki (nM)": 10
  },
  {
    "compound": "COc1cc(N2CC=C(Oc3ccc(-c4ccccc4)cc3)C2=O)ccc1OCC(C)(C)O [Example 122]",
    "Ki (nM)": 3
  },
  {
    "compound": "COc1cc(N2CCC(Oc3ccc(-c4ccccc4OC)cc3)C2=O)ccc1OCC(C)(C)O (stereo not shown) [Example 27]",
    "Ki (nM)": 238
  },
  {
    "compound": "COc1cc(N2CCC(Oc3ccc(-c4ccccc4F)cc3)C2=O)ccc1OCC(C)(C)O (stereo not shown) [Example 24]",
    "Ki (nM)": 9
  },
  {
    "compound": "COc1cc(N2CC[C@@H](Oc3ccc(OC(F)(F)F)cc3)C2=O)ccc1OCC(C)(C)O [Example 15]",
    "Ki (nM)": 11
  },
  {
    "compound": "COc1cc(N2CCC(Oc3ccc(OC(F)(F)F)c(F)c3)C2=O)ccc1OCC(C)(C)O (stereo not shown) [Example 18]",
    "Ki (nM)": 959
  },
  {
    "compound": "COc1cc(N2CCC(Oc3ccc(-c4ccccc4C)cc3)C2=O)ccc1OCC(C)(C)O (stereo not shown) [Example 26]",
    "Ki (nM)": 81
  },
  {
    "compound": "COc1ccc(N2CCC(Oc3ccc(-c4ccccc4)cc3)C2=O)cc1OC (stereo not shown) [Example 43]",
    "Ki (nM)": 19
  },
  {
    "compound": "COc1cc(N2CCC(Oc3ccc(OC(F)(F)F)cc3Cl)C2=O)ccc1OCC(C)(C)O (stereo not shown) [Example 17]",
    "Ki (nM)": 402
  }
]

* * *

Reported Ki by item:
targetUnderTest: human melanin concentrating hormone receptor (MCHR1) (Homo sapiens, UniProt Q99705, A5T/E4Q)
assayName: Radioligand binding assay for assessment of MCHR1 activity
runParameters: membranes from HEK-293 cells expressing a mutated (E4Q, A5T) hMCHR1 receptor; competition with 0.06 - 0.1 nM [Phe13, [125I]Tyr19]-MCH; 90 min

[
  {
    "compound": "COc1cc(N2CC[C@H](Oc3ccc(C4CC4)cc3)C2=O)ccc1OCCS(C)(=O)=O",
    "Ki [nM]": 87
  },
  {
    "compound": "COc1cc(N2CCC(Oc3ccc(OC(F)(F)F)cc3)C2=O)ccc1OC[C@H](O)CS(C)(=O)=O (some centres unmarked)",
    "Ki [nM]": 65
  },
  {
    "compound": "COc1cc(N2CC[C@H](Oc3ccc(-c4ccccc4)cc3)C2=O)ccc1OC[C@H](O)C1CC1",
    "Ki [nM]": 1060
  },
  {
    "compound": "CCS(=O)(=O)C[C@H](O)COc1ccc(N2CCC(Oc3ccc(OC(F)(F)F)cc3)C2=O)cc1OC (some centres unmarked)",
    "Ki [nM]": 197
  },
  {
    "compound": "COc1cc(N2CCC(Oc3ccc(C4CC4)cc3)C2=O)ccc1OCC(C)(C)O (centres unmarked)",
    "Ki [nM]": 23
  },
  {
    "compound": "Cc1cc(N2CC[C@@H](Oc3ccc(-c4ccccc4)cc3)C2=O)ccc1OCCS(C)(=O)=O (single isomer, unassigned)",
    "Ki [nM]": 636
  },
  {
    "compound": "Cc1cc(N2CCC(Oc3ccc(C4CC4)cc3)C2=O)ccc1OC[C@@H](O)CS(C)(=O)=O (some centres unmarked)",
    "Ki [nM]": 42
  },
  {
    "compound": "COc1cc(N2CCC(Oc3ccc(Cl)cc3)C2=O)ccc1OCC(C)(C)O (centres unmarked)",
    "Ki [nM]": 2060
  },
  {
    "compound": "COc1cc(N2CCC(Oc3ccc(-c4ccccc4)c(F)c3)C2=O)ccc1OCC(C)(C)O (centres unmarked)",
    "Ki [nM]": 12
  },
  {
    "compound": "COc1cc(N2CCC(Oc3ccc(-c4ccccc4Cl)cc3)C2=O)ccc1OCC(C)(C)O (centres unmarked)",
    "Ki [nM]": 68
  },
  {
    "compound": "COc1cc(N2CCC(Oc3ccc(Br)c(Cl)c3)C2=O)ccc1OCC(C)(C)O (centres unmarked)",
    "Ki [nM]": 522
  },
  {
    "compound": "Cc1cc(N2CC[C@@H](Oc3ccc(C4CC4)cc3)C2=O)ccc1OCC(C)(C)O",
    "Ki [nM]": 5
  },
  {
    "compound": "CS(=O)(=O)CCOc1ccc(N2CCC(Oc3ccc(-c4ccccc4)cc3)C2=O)cc1OCCF (centres unmarked)",
    "Ki [nM]": 7
  },
  {
    "compound": "COc1cc(N2CCC(Oc3ccc(-c4ccccc4)cc3)C2=O)ccc1OC[C@H](O)CS(C)(=O)=O (some centres unmarked)",
    "Ki [nM]": 9
  },
  {
    "compound": "COc1cc(N2CC[C@@H](Oc3ccc(C(F)(F)F)cc3)C2=O)ccc1OCC(C)(C)O (single isomer, unassigned)",
    "Ki [nM]": 23
  },
  {
    "compound": "COc1cc(N2CC=C(Oc3ccc(C4CC4)cc3)C2=O)ccc1OCC(C)(O)CO (centres unmarked)",
    "Ki [nM]": 4
  },
  {
    "compound": "COc1cc(N2CCC(Oc3ccc(-c4ccccc4)cc3)C2=O)ccc1OCC(C)(C)O (centres unmarked)",
    "Ki [nM]": 4
  },
  {
    "compound": "Cc1cc(N2CC=C(Oc3ccc(C4CC4)cc3)C2=O)ccc1OCC(C)(C)O",
    "Ki [nM]": 9
  },
  {
    "compound": "COc1cc(N2CC[C@@H](Oc3ccc(-c4ccccc4)cc3)C2=O)ccc1OCC(C)(C)O",
    "Ki [nM]": 2
  },
  {
    "compound": "COc1cc(N2CC[C@@H](Oc3ccc(C4CC4)cc3)C2=O)ccc1OCCS(C)(=O)=O",
    "Ki [nM]": 3
  },
  {
    "compound": "COc1cc(N2CCC(C)(Oc3ccc(OC(F)(F)F)cc3)C2=O)ccc1OCC(C)(C)O (centres unmarked)",
    "Ki [nM]": 473
  },
  {
    "compound": "Cc1cc(N2CCC(Oc3ccc(Br)nc3)C2=O)ccc1OCC(C)(C)O (centres unmarked)",
    "Ki [nM]": 7000
  },
  {
    "compound": "Cc1cc(N2CCC(Oc3ccc(C4CC4)cc3)C2=O)ccc1OCC(C)(C)O (centres unmarked)",
    "Ki [nM]": 11
  },
  {
    "compound": "Cc1cc(N2CCC(Oc3ccc(-c4ccc(F)cc4)cc3)C2=O)ccc1OCCS(C)(=O)=O (centres unmarked)",
    "Ki [nM]": 6
  },
  {
    "compound": "COc1cc(N2CCC(Oc3ccc(-c4ccncc4Cl)cc3)C2=O)ccc1OCC(C)(C)O (centres unmarked)",
    "Ki [nM]": 634
  },
  {
    "compound": "Cc1cc(N2CCC(Oc3ccc(-c4ccccc4)cc3)C2=O)ccc1OC[C@H](O)CS(C)(=O)=O (some centres unmarked)",
    "Ki [nM]": 15
  },
  {
    "compound": "COc1cc(N2CCC(Oc3ccc(-c4ccccc4)cc3)C2=O)ccc1OCC1(O)CC(F)(F)C1 (centres unmarked)",
    "Ki [nM]": 7
  },
  {
    "compound": "COc1cc(N2CCC(Oc3ccc(C4CC4)cc3)C2=O)ccc1OC[C@H](O)C1CC1 (some centres unmarked)",
    "Ki [nM]": 12
  },
  {
    "compound": "COc1cc(N2CC[C@H](Oc3ccc(OC(F)(F)F)cc3)C2=O)ccc1OCC(C)(C)O",
    "Ki [nM]": 2340
  },
  {
    "compound": "COc1cc(N2CCC(Oc3ccc(C(F)(F)F)cc3)C2=O)ccc1OCC(C)(C)O (centres unmarked)",
    "Ki [nM]": 34
  },
  {
    "compound": "COc1cc(N2CCC(Oc3ccc(C4CC4)cc3)C2=O)ccc1OCCS(C)(=O)=O (centres unmarked)",
    "Ki [nM]": 7
  },
  {
    "compound": "COc1cc(N2CC[C@H](Oc3ccc(-c4ccccc4)cc3)C2=O)ccc1OCC(C)(C)O",
    "Ki [nM]": 493
  }
]

Data provenance is patent EP2892896B1.
